Origin of values: PubChem BioAssay (NCI)

Measured TGI of individual entries
# Test system: A549 NSCLC
# ASSAY_PROTOCOL: NCI tumour cell line growth inhibition, 48 h

COMPOUND | TGI
CC[C@H](NC(=O)OC(C)(C)C)C(=O)NCP(=O)(OCc1ccc([N+](=O)[O-])cc1)OCc1ccc([N+](=O)[O-])cc1 | > 100 µM
C=C1C(OC(C)=O)CC(OC(C)=O)C2(C)C(OC(C)=O)C(OC(C)=O)C3=C(C)C(OC(=O)/C=C/c4ccccc4)CC(C(OC(C)=O)C12)C3(C)C (centres undefined) | > 100 µM
CN(C)CCCNC(=O)N/N=C/c1ccccc1 | > 100 µM
O=C1N=C(Nc2nc(-c3csc(NC4=NC(=O)/C(=C\c5ccccc5)S4)n3)cs2)S/C1=C/c1ccccc1 | > 50 µM
